All values here come from patent US20100292231A1.

- System under test: UniProtKB P08922
- Sequence (P08922 28-2347): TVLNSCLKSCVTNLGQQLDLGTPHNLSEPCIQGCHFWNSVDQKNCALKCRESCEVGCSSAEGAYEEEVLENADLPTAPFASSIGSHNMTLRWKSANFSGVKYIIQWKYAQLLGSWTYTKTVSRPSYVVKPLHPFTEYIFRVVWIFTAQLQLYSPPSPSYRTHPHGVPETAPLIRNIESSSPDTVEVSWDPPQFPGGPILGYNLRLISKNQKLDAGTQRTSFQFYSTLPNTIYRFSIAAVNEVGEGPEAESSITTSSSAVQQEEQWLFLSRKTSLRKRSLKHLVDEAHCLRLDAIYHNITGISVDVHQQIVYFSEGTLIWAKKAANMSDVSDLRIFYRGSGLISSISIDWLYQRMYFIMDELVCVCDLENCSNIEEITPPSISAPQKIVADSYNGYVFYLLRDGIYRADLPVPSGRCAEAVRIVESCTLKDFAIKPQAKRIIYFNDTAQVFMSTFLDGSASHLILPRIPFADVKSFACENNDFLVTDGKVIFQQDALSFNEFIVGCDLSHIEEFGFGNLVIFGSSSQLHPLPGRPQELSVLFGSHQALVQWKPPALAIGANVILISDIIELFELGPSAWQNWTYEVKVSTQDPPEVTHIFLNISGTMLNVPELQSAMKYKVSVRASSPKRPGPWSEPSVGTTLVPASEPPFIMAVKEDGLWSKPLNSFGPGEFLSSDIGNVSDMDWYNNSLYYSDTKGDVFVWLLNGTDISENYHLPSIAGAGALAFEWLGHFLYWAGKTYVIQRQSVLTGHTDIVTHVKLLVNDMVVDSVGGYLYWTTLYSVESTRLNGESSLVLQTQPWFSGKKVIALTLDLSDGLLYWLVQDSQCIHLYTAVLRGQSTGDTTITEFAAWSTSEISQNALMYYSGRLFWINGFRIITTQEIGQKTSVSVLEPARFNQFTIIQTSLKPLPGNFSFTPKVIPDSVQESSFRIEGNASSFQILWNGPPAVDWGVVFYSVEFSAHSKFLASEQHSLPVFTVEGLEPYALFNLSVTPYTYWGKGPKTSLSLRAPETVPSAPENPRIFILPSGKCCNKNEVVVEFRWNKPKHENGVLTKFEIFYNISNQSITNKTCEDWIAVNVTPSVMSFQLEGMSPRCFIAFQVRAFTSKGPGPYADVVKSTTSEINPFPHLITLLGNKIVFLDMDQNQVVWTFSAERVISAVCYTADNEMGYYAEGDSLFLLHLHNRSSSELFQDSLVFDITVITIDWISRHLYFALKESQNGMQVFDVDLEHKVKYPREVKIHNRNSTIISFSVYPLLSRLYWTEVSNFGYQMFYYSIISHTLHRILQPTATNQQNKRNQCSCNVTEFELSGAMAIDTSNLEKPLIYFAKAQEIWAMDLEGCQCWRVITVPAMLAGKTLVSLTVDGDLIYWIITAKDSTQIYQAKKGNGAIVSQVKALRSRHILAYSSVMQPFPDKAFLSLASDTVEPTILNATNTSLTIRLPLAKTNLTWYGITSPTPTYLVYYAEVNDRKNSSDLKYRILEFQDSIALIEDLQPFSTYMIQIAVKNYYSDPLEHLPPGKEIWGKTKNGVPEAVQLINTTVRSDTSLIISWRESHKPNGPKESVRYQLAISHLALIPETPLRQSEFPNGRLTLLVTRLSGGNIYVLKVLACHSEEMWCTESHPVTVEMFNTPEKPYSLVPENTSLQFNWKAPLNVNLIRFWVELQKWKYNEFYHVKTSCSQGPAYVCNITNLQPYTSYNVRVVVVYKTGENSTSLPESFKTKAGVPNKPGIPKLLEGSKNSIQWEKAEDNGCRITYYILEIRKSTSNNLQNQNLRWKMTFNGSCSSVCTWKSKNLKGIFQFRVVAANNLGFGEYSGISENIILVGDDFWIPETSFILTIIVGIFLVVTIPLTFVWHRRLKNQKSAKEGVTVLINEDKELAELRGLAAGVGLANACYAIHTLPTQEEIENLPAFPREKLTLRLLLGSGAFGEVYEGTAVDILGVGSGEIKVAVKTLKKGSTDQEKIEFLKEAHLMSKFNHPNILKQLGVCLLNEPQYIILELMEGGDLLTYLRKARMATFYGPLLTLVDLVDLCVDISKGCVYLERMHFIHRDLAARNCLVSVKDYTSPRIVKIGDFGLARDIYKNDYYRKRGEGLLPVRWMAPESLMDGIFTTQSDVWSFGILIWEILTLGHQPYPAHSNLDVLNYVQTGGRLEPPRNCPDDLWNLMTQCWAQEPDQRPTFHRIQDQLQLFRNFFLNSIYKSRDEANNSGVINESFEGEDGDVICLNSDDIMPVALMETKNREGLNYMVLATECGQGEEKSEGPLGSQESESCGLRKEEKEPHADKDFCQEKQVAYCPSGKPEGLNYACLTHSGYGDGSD
- Assay explanation: SelectScreen kinase specificity survey
- Settings: estimated, abridged dose response curve, read-out: Kinase inhibitory activity EC50
Observed property: pEC50
Numbers only, as −log10 of the molar value.

Prompt line: Endpoint output: pEC50 of "CN(C)CCCNc1ccc2ncn3c4ccc5[nH]ncc5c4c(=O)c1c23" . Value?
Response line: 5.58

====

- System under test: CSNK1A1 (CK1 alpha 1) (Homo sapiens, UniProt P48729)
- Sequence (P48729 whole entry): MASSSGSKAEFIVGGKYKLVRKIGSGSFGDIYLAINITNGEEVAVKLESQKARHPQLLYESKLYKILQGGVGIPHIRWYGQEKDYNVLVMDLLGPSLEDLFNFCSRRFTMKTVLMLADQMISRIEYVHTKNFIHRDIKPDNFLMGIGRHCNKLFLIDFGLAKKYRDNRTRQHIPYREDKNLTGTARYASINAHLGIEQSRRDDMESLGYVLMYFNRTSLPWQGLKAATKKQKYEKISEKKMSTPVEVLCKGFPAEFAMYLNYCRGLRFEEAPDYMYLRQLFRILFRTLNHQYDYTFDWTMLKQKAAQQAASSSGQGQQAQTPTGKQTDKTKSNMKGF
- Assay explanation: SelectScreen kinase specificity survey
- Settings: estimated, abridged dose response curve, read-out: Kinase inhibitory activity EC50
- Description: Testing of the compounds described in this invention was carried out using the SelectScreen™ platform from Invitrogen, Inc. (Carlsbad. Calif., USA) and the details of its performance are readily viewed via the web by linking to: http://www.invitrogen.com/downloads/SelectScrn_Brochure.pdf. Briefly, the approach is based on treating each specific kinase with a unique substrate and optical reporter system in the presence of ATP at 100 micromolar. […]
Observed property: EC50 (µM)
Answers are plain numbers, in µM.

Prompt line: Requested read-out: EC50. Entry: CCN(CC)CCNc1ccc2ncn3c4ccc(O)cc4c(=O)c1c23 [Symadex, reference compound]
Response line: 3.48
